System: Leishmania donovani
Method summary: Antileishmanial activity against HePC-resistant wild type promastigote stage of Leishmania donovani MHOM/ET/67/HU3 infected in mouse macrophages assessed as reduction in parasite viability measured after 48 hrs by Giemsa staining-based assay
Experimental parameters: MHOM/ET/67/HU3, Macrophage
Endpoint label: IC50 (µM)

CCCCCCCCCCCCCCCCOP(=O)([O-])OCC[N+](C)(C)C    68.1

* * *

Tested on: Leishmania donovani
Method summary: Antileishmanial activity against Leishmania donovani promastigotes assessed as reduction in parasite viability in presence of 25 uM iron chelator desferrioxamine measured after 24 hrs by microplate alamar blue assay
Assay type: functional, organism-based
Attribute: IC50
Endpoint label: IC50 (µM)

CCCCC1(CCCC)C[C@H](CNCCCn2ccnc2)[C@](C)(OC)OO1 (racemic)    8.9
CCCCC1(CCCC)CO[C@@](C)(OC)[C@@H](CNCCCn2ccnc2)C1 (racemic)    5.3
